pIC50 by entry:
System: Plasmodium falciparum
Experiment: Hit confirmation in dose-response curve in NF54 pLDH assay, at 72h
Assay type: functional, organism-based
Set-up: timepoint 72 hour
Details: NF54, Erythrocyte
# reply with the number alone; pIC50 is -log10 of concentration in mol/L

Below are worked cases with known answers.
[
  {
    "Smiles text": "CCCOc1ccc(Nc2cc(C)nc3ccc(Cl)cc23)cc1",
    "Measured value": 5.15
  },
  {
    "Smiles text": "CC(C)CC[C@@H](CCNC1CCN(C)CC1)c1ccc(Cl)cc1",
    "Measured value": 5.62
  },
  {
    "Smiles text": "CCc1ccc(/C=C/c2c[nH]c3ccccc23)[n+](CC)c1",
    "Measured value": 6.29
  }
]

Lab note: next molecule to report on.
Give reported pIC50 value for Clc1ccc(Cn2cc(CNCCCn3ccnc3)c3ccccc32)c(Cl)c1
6.25

====

Test system: Plasmodium falciparum
Assay: Hit confirmation in dose-response curve in NF54 nanoGlo assay, at 72h
Format: functional, organism-based, Erythrocyte
Set-up: timepoint 72 hour
Conditions: Plasmodium falciparum, NF54, Erythrocyte, 72 h
Measurement label: IC50 (nM)
Give your result in nM as a bare value.

[
  {
    "Smiles text": "CCCN1C(=O)c2ccccc2N2C(=O)CC[C@@]12C(=O)Nc1ccc(OC)cc1",
    "Measured value": 1450
  },
  {
    "Smiles text": "CCc1ccc(NC(=O)[C@H](C)N2CCC(NS(=O)(=O)c3cccs3)CC2)cc1",
    "Measured value": 1150
  },
  {
    "Smiles text": "Cc1cc(=O)c(OCC(=O)N2CCN([C@@H](c3ccccc3)c3ccc(Cl)cc3)CC2)c[nH]1",
    "Measured value": 1860
  },
  {
    "Smiles text": "COc1ccc(CNc2nc(-c3nnc(-c4ccccc4)o3)nc3ccccc23)cc1",
    "Measured value": 3020
  },
  {
    "Smiles text": "Cc1ccc(N2C(=O)c3ccccc3[C@@H]2c2c[nH]c3ccccc23)cc1",
    "Measured value": 2630
  }
]

Give reported IC50 value for Cn1ccnc1[C@@H]1CCCN1Cc1nccn1Cc1ccccc1
2090

Give reported IC50 value for CCCC[C@H](Oc1ccc(C(C)(C)CC)cc1C(C)(C)CC)C(=O)Nc1ccc(NC(=O)C(F)(F)C(F)(F)C(F)(F)F)c(O)c1
2950

====

IC50 by entry:
Test system: Plasmodium falciparum
Test: Hit confirmation in dose-response curve in NF54 nanoGlo assay, at 72h
Type: functional, organism-based, Erythrocyte
Design: timepoint 72 hour
Settings: Plasmodium falciparum, NF54, Erythrocyte, 72 h

[
  {
    "Molecule": "Cc1cc(C)c(NC(=O)OCc2cccc3cccnc23)c(C)c1",
    "IC50": "1.05 µM"
  },
  {
    "Molecule": "Cc1cc(C)cc(-c2cc3nc(C)cc(N4CCC(C(=O)NCc5cccc(F)c5)CC4)n3n2)c1",
    "IC50": "1.48 µM"
  },
  {
    "Molecule": "C[C@@]1(C(=O)NCc2ccccc2)Cn2nc(-c3ccccc3)cc2C(=O)N1c1ccc2c(c1)OCCO2",
    "IC50": "2.24 µM"
  }
]

Lab note: next molecule to report on.
Give reported IC50 value for COC(=O)c1c(NC(C)=O)c2cc(NC3CCOCC3)cnc2n1CCc1ccc(OC)cc1
> 10 µM

====

Test system: Plasmodium falciparum
Test: Hit confirmation in dose-response curve in NF54 nanoGlo assay, at 72h
Format: functional, organism-based, Erythrocyte
Set-up: timepoint 72 hour
Settings: Plasmodium falciparum, NF54, Erythrocyte, 72 h
pIC50: −log10 of the molar value.
pIC50 below 6 gives false (0); pIC50 at or above it gives true (1).

Reference set, count: 5
[
  {
    "Molecule": "C[C@H]1[C@@H]2[C@@H](O)C([C@H](C)C(=O)NC3CCCCC3)CC[C@@]2(C)CC[C@@H]1NC(=O)CC(C)(C)C (some centres undefined)",
    "Tested system": "Plasmodium falciparum",
    "Label": "false (0)"
  },
  {
    "Molecule": "CC(C)c1cc(CN(Cc2cc(C(C)C)c(O)c(C(C)C)c2)C2CCCCC2)cc(C(C)C)c1O",
    "Tested system": "Plasmodium falciparum",
    "Label": "true (1)"
  },
  {
    "Molecule": "N[C@H]1C[C@H](c2cc(NCCCc3cccnc3)nc(C3CC3)n2)C1",
    "Tested system": "Plasmodium falciparum",
    "Label": "false (0)"
  },
  {
    "Molecule": "COc1ccc(S(=O)(=O)N2CCC(c3cc(N)on3)CC2)cc1Cl",
    "Tested system": "Plasmodium falciparum",
    "Label": "false (0)"
  },
  {
    "Molecule": "COc1ccc([C@H](NC(=O)CCc2ccccc2)c2c(O)ccc3ccccc23)cc1",
    "Tested system": "Plasmodium falciparum",
    "Label": "false (0)"
  }
]

Is it the case that Cc1nn(-c2nc3ccccc3[nH]2)c(O)c1CCC(C)C has pIC50 reaching or exceeding 6?
false (0)

Is it the case that Cc1nnc(-c2ccc3ccn(CC(=O)Nc4ccc(F)c(Cl)c4)c3c2)o1 has pIC50 reaching or exceeding 6?
false (0)

Is it the case that NC(=O)c1ccc(C(F)(F)F)n(C[C@H](O)c2cc(Cl)ccc2Cl)c1=O has pIC50 reaching or exceeding 6?
false (0)

Is it the case that Fc1ccccc1N1CCN(C2CCN(Cc3c[nH]c4ccccc34)CC2)CC1 has pIC50 reaching or exceeding 6?
false (0)

====

System: Plasmodium falciparum
Experiment: Hit confirmation in dose-response curve in NF54 pLDH assay, at 72h
Format: functional, organism-based
Parameters: timepoint 72 hour
Conditions: NF54, Erythrocyte
pIC50 by entry:
# reply with the number alone; pIC50 is -log10 of concentration in mol/L

Below are worked cases with known answers.
[
  {
    "Smiles text": "Clc1ccc(C[n+]2ccc(-c3nc4ccccc4o3)cc2)c(Cl)c1",
    "pIC50": 6.22
  },
  {
    "Smiles text": "Cc1oc(-c2ccc(C(=O)N3CCN(c4ccccc4)CC3)cc2)nc1CN1CCC(C)CC1",
    "pIC50": 5.47
  }
]

Lab note: next compound to report on.
Give reported pIC50 value for COc1ccccc1N(Cc1ccccc1)C1=NC(=[N+](Cc2ccccc2)c2ccccc2OC)c2ccccc21
5.22

====

System: Plasmodium falciparum
Assay: Hit confirmation in dose-response curve in NF54 nanoGlo assay, at 72h
Assay type: functional, organism-based, Erythrocyte
Set-up: timepoint 72 hour
Conditions: Plasmodium falciparum, NF54, Erythrocyte, 72 h
Measurement label: pIC50
# reply with the number alone; pIC50 is -log10 of concentration in mol/L

[
  {
    "Compound": "COC[C@H](NCCc1cc(F)cc2c1OCOC2)C1CC1",
    "Measured value": 6.18
  }
]

Give reported pIC50 value for FC(F)Oc1ccc(-c2c[n+](-c3cccc(C(F)(F)F)c3)c3n2CCCCC3)cc1
5.61

Give reported pIC50 value for CCOC(=O)C1CCC(CN(Cc2ccc(OC)cc2)S(=O)(=O)c2cc(C(=O)Nc3ccc(OCC)cc3)ccc2F)CC1 (stereo not drawn)
5.30

====

Test system: Plasmodium falciparum
Experiment: Re-testing in dose-response curve in 3D7 pLDH assay, at 72h
Type: functional, organism-based
Parameters: timepoint 72 hour
Details: 3D7, Erythrocyte
Measurement label: IC50 (nM)
Give your result in nM as a bare value.

Below are worked cases with known answers.
[
  {
    "Smiles text": "O=C(CN1CCC[C@H]1C1CCCC1)NCC1CCCCC1",
    "Measured value": 2070
  },
  {
    "Smiles text": "Cc1ccc(O)c(CNCC2(c3ccccc3Cl)CCOCC2)n1",
    "Measured value": 444
  },
  {
    "Smiles text": "O=C(Nc1cc(N2CCCS2(=O)=O)ccc1O)c1cccc(Oc2cccc(C(F)(F)F)c2)c1",
    "Measured value": 416
  },
  {
    "Smiles text": "Cc1ccnc(Nc2ccc(N3CCNCC3)nn2)c1",
    "Measured value": 3000
  },
  {
    "Smiles text": "Cc1cccc(CN(Cc2cccc(C)n2)C[C@H]2CCCCO2)n1",
    "Measured value": 1320
  }
]

GET IC50 where system = Plasmodium falciparum and item = COc1ccc2nc(O)c(C(=O)Nc3ccc4c(c3F)CCNC4)cc2c1
845

GET IC50 where system = Plasmodium falciparum and item = CN1CCCN(c2ccc(NC(=O)c3nn(-c4ccccc4)c(=O)c4ccccc34)cc2F)CC1
1150

GET IC50 where system = Plasmodium falciparum and item = c1cc(N2CC[C@@]3(CCCNC3)C2)c2sccc2n1
580

GET IC50 where system = Plasmodium falciparum and item = O=C(c1cscn1)N1CC[C@H](Oc2cccc(Cl)c2)C1
575

GET IC50 where system = Plasmodium falciparum and item = COc1ccc([C@@H]2C=C(c3ccc(Cl)cc3)N=C3NC(NC(=O)c4ccccc4OC)=NN32)cc1
6520

GET IC50 where system = Plasmodium falciparum and item = CCC1=C(c2ccc(C)cc2)S(=O)(=O)N=C1N1CCC(C(=O)NCCN2CCCC[C@@H]2C)CC1
522

GET IC50 where system = Plasmodium falciparum and item = CC(C)c1cc(CN(Cc2cc(C(C)C)c(O)c(C(C)C)c2)C2CCCCC2)cc(C(C)C)c1O
113

GET IC50 where system = Plasmodium falciparum and item = COc1ccnc(CN2CCC[C@H](c3nc(-c4ccccc4)c[nH]3)C2)c1OC
15600

GET IC50 where system = Plasmodium falciparum and item = COc1cccc(-c2cc(O)cc(CC[C@H]3CCCCN3)c2)n1
1280

GET IC50 where system = Plasmodium falciparum and item = CC(C)N(CC(=O)Nc1nccs1)Cc1ccccn1
9790
